Origin of the recorded values: the supplement of paper PMC8728848

# TEST_TARGET: Neu5Ac(a2-8)Neu5Ac(a2-8)Neu5Ac(a2-8)Neu5Ac(a2-3)[GalNAc(b1-4)]Gal(b1-4)Glc
# EXPERIMENT_DESCRIPTION: glycan array binding signal (z-score within array); higher = stronger binding
# ASSAY_SETUP: glycan notation: IUPAC condensed, linker removed
Shown is part of a subset that was picked to be rich in the strongest signals.
PARAMETER: glycan array binding signal (z-score)

Known results for binders:
| BINDER | glycan array binding signal (z-score) |
| --- | --- |
| Nc3LysM-2 (protein) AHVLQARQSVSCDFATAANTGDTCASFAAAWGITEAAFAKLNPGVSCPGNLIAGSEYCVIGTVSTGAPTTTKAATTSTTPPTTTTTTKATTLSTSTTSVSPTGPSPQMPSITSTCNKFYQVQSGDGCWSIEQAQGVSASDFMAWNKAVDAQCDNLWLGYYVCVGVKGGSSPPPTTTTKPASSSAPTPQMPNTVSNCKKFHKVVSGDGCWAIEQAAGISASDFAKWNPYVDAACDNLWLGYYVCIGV | 0.938 |
| EULS2 M3 (Oryza sativa) (protein) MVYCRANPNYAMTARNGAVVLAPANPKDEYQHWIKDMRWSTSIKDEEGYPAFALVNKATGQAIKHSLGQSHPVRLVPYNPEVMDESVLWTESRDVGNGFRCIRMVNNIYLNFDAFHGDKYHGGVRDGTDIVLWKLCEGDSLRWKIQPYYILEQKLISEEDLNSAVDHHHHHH | -0.424 |

Now consider the entry below.
-- ask State the recorded glycan array binding signal (z-score) for this entry: AAL (Agrocybe aegerita), Q6WY08 (protein) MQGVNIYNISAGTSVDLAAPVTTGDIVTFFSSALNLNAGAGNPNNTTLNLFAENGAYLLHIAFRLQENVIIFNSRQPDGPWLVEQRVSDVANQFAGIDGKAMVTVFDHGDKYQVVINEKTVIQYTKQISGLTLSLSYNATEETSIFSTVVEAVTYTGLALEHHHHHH
-- reply -0.132
